Target: tRNA (guanine-N(1)-)-methyltransferase (Staphylococcus aureus (strain NCTC 8325 / PS 47))
Sequence (Q2FZ43 whole entry): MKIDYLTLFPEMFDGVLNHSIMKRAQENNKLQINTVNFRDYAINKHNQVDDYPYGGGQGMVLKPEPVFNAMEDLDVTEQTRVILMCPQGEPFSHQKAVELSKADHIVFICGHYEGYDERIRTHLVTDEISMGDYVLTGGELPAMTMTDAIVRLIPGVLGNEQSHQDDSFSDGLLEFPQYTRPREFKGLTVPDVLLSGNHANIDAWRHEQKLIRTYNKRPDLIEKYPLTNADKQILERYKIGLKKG
Experiment: Binding affinity to full length Staphylococcus aureus tRNA (guanine(37)-N1)-methyltransferase expressed in Escherichia coli BL21 (DE3) by surface plasmon resonance assay
pKd: −log10 of the molar value.
# pKd listing for each entry below

{"smiles input": "Nc1ncnc2c1ncn2[C@@H]1O[C@H](CSCC[C@H](N)C(=O)O)[C@@H](O)[C@H]1O", "pKd": 5.48}
{"smiles input": "NC1CCN(Cc2ccc(CNC(=O)c3csc4nc[nH]c(=O)c34)cc2)CC1", "pKd": 4.56}
{"smiles input": "CCCCCCCCNCc1ccc(CNC(=O)c2csc3nc[nH]c(=O)c23)cc1", "pKd": 5.51}

###

Tested on: Staphylococcus aureus
Test: Antibacterial activity against methicillin-resistant Staphylococcus aureus ATCC 43300 at 100 uM incubated for 24 hrs
Type: functional, organism-based
The source made the active and inactive calls. The rule behind the calls is not given here.
Possible outcomes: active, inactive

{"smiles input": "CCCCCCCCCCNCc1ccc(CNC(=O)c2csc3nc[nH]c(=O)c23)cc1", "classification": "active"}
{"smiles input": "Cl.NCCCCCNCc1ccc(CNC(=O)c2csc3nc[nH]c(=O)c23)cc1", "classification": "inactive"}
{"smiles input": "Cl.NCCOCCOCCNCc1ccc(CNC(=O)c2csc3nc[nH]c(=O)c23)cc1", "classification": "inactive"}
{"smiles input": "CCOCCOCCNCc1ccc(CNC(=O)c2csc3nc[nH]c(=O)c23)cc1", "classification": "inactive"}
{"smiles input": "Cl.NCCCCNCc1ccc(CNC(=O)c2csc3nc[nH]c(=O)c23)cc1", "classification": "inactive"}
{"smiles input": "CCCCCCCCN(CC)Cc1ccc(CNC(=O)c2csc3nc[nH]c(=O)c23)cc1", "classification": "inactive"}
{"smiles input": "O=C(NCc1ccc(CNC23CC4CC(CC(C4)C2)C3)cc1)c1csc2nc[nH]c(=O)c12", "classification": "inactive"}
{"smiles input": "Cl.NCCCCCCCNCc1ccc(CNC(=O)c2csc3nc[nH]c(=O)c23)cc1", "classification": "inactive"}
{"smiles input": "CCCCCNCc1ccc(CNC(=O)c2csc3nc[nH]c(=O)c23)cc1", "classification": "inactive"}
{"smiles input": "CCCCCCN(Cc1ccccc1)Cc1ccc(CNC(=O)c2csc3nc[nH]c(=O)c23)cc1", "classification": "inactive"}

###

Molecular target: tRNA (guanine-N(1)-)-methyltransferase (Pseudomonas aeruginosa (strain ATCC 15692 / DSM 22644 / CIP 104116 / JCM14847 / LMG 12228 / 1C / PRS 101 / PAO1), UniProt Q9HXQ1)
Sequence (Q9HXQ1 whole entry): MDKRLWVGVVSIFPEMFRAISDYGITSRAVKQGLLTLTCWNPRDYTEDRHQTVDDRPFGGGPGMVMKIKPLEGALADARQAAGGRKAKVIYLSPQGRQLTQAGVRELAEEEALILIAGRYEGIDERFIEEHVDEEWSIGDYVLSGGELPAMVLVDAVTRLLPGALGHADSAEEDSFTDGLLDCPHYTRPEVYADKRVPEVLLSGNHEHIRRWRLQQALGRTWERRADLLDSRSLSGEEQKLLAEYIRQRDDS
Experiment: Inhibition of Pseudomonas aeruginosa tRNA (guanine(37)-N1)-methyltransferase (Leu5 to Asp25 residues) expressed in Escherichia coli BL21 (DE3) Rosetta T1R cells assessed as reduction in S-adenosyl-L-homocysteine production preincubated for 15 mins followed by 1.5 uM of tRNALeu(CAG) substrate and SAM addition and measured after 45 mins by MTase-Glo assay

{"smiles input": "O=C(NCc1ccc(CNC(=O)c2cc(=O)c(O)cn2O)cc1)c1csc2nc[nH]c(=O)c12", "value units": "nM", "IC50": 700}
{"smiles input": "NC1CCN(Cc2ccc(CNC(=O)c3csc4nc[nH]c(=O)c34)cc2)CC1", "value units": "nM", "IC50": 180}
{"smiles input": "O=C(NCc1ccc(CNCc2ccccc2)cc1)c1csc2nc[nH]c(=O)c12", "value units": "nM", "IC50": 130}
{"smiles input": "CCCCCCCCNCc1ccc(CNC(=O)c2csc3nc[nH]c(=O)c23)cc1", "value units": "nM", "IC50": 24}
{"smiles input": "Cl.NCCCCNCc1ccc(CNC(=O)c2csc3nc[nH]c(=O)c23)cc1", "value units": "nM", "IC50": 80}
{"smiles input": "CCCCCCN(Cc1ccccc1)Cc1ccc(CNC(=O)c2csc3nc[nH]c(=O)c23)cc1", "value units": "nM", "IC50": 2200}
{"smiles input": "CCCCCCCCCCCCNCc1ccc(CNC(=O)c2csc3nc[nH]c(=O)c23)cc1", "value units": "nM", "IC50": 380}
{"smiles input": "O=C(NCc1ccc(CN2CCOCC2)cc1)c1csc2nc[nH]c(=O)c12", "value units": "nM", "IC50": 3000}
{"smiles input": "CCCCCCCCN(CC)Cc1ccc(CNC(=O)c2csc3nc[nH]c(=O)c23)cc1", "value units": "nM", "IC50": 370}
{"smiles input": "CCN(Cc1ccccc1)Cc1ccc(CNC(=O)c2csc3nc[nH]c(=O)c23)cc1", "value units": "nM", "IC50": 2200}
{"smiles input": "CCCCCCCCCCNCc1ccc(CNC(=O)c2csc3nc[nH]c(=O)c23)cc1", "value units": "nM", "IC50": 25}
{"smiles input": "Cl.NCCOCCOCCNCc1ccc(CNC(=O)c2csc3nc[nH]c(=O)c23)cc1", "value units": "nM", "IC50": 450}
{"smiles input": "O=C(NCc1ccc(CNCCOCCO)cc1)c1csc2nc[nH]c(=O)c12", "value units": "nM", "IC50": 110}
{"smiles input": "O=C(NCc1ccc(CN2CCCCC2)cc1)c1csc2nc[nH]c(=O)c12", "value units": "nM", "IC50": 1100}
{"smiles input": "CCOCCOCCNCc1ccc(CNC(=O)c2csc3nc[nH]c(=O)c23)cc1", "value units": "nM", "IC50": 210}
{"smiles input": "CCCCCCCCN(Cc1ccccc1)Cc1ccc(CNC(=O)c2csc3nc[nH]c(=O)c23)cc1", "value units": "nM", "IC50": 12000}
{"smiles input": "CCCCCNCc1ccc(CNC(=O)c2csc3nc[nH]c(=O)c23)cc1", "value units": "nM", "IC50": 85}
{"smiles input": "CCCCNCc1ccc(CNC(=O)c2csc3nc[nH]c(=O)c23)cc1", "value units": "nM", "IC50": 150}
{"smiles input": "O=C(NCc1ccc(CNC23CC4CC(CC(C4)C2)C3)cc1)c1csc2nc[nH]c(=O)c12", "value units": "nM", "IC50": 720}
{"smiles input": "CCN(Cc1ccc(CNC(=O)c2csc3nc[nH]c(=O)c23)cc1)C1CCCCC1", "value units": "nM", "IC50": 490}
{"smiles input": "CCN(CC)Cc1ccc(CNC(=O)c2csc3nc[nH]c(=O)c23)cc1", "value units": "nM", "IC50": 730}

###

Tested on: Staphylococcus aureus
Test: Antibacterial activity against methicillin-resistant Staphylococcus aureus ATCC 43300 at 100 uM incubated for 24 hrs
Assay type: functional, organism-based
Calls of active or inactive are those of the source. No cut-off for these calls is given here.

{"smiles input": "O=C(NCc1ccc(CNCc2ccccc2)cc1)c1csc2nc[nH]c(=O)c12", "Activity": "inactive"}
{"smiles input": "CCN(Cc1ccccc1)Cc1ccc(CNC(=O)c2csc3nc[nH]c(=O)c23)cc1", "Activity": "inactive"}
{"smiles input": "O=C(NCc1ccc(CNC2CCCCC2)cc1)c1csc2nc[nH]c(=O)c12", "Activity": "inactive"}
{"smiles input": "O=C(NCc1ccc(CNCCOCCO)cc1)c1csc2nc[nH]c(=O)c12", "Activity": "inactive"}

###

Test system: Staphylococcus aureus
Experiment: Antibacterial activity against methicillin-resistant Staphylococcus aureus ATCC 43300 at 100 uM incubated for 24 hrs
Type: functional, organism-based
Active and inactive are the calls of the source. The calls are words filed in the database; no cut-off is given here.
Possible outcomes: T for active, F for inactive

{"smiles input": "O=C(NCc1ccc(CN2CCOCC2)cc1)c1csc2nc[nH]c(=O)c12", "classification": "F"}
{"smiles input": "CCCCCCCCCCCCNCc1ccc(CNC(=O)c2csc3nc[nH]c(=O)c23)cc1", "classification": "T"}
{"smiles input": "CCCCNCc1ccc(CNC(=O)c2csc3nc[nH]c(=O)c23)cc1", "classification": "F"}
{"smiles input": "NC1CCN(Cc2ccc(CNC(=O)c3csc4nc[nH]c(=O)c34)cc2)CC1", "classification": "F"}
{"smiles input": "O=C(NCc1ccc(CN2CCCCC2)cc1)c1csc2nc[nH]c(=O)c12", "classification": "F"}
{"smiles input": "O=C(NCc1ccc(CNC(=O)c2cc(=O)c(O)cn2O)cc1)c1csc2nc[nH]c(=O)c12", "classification": "F"}
{"smiles input": "CCCCCCCCN(Cc1ccccc1)Cc1ccc(CNC(=O)c2csc3nc[nH]c(=O)c23)cc1", "classification": "F"}
{"smiles input": "CCN(CC)Cc1ccc(CNC(=O)c2csc3nc[nH]c(=O)c23)cc1", "classification": "F"}
{"smiles input": "CCN(Cc1ccc(CNC(=O)c2csc3nc[nH]c(=O)c23)cc1)C1CCCCC1", "classification": "F"}
{"smiles input": "CCCCCCCCNCc1ccc(CNC(=O)c2csc3nc[nH]c(=O)c23)cc1", "classification": "T"}
